target-or-test-system: NAMPT (human, recombinant, C-terminally His-tagged) (Homo sapiens, UniProt P43490)
Sequence (P43490 whole entry): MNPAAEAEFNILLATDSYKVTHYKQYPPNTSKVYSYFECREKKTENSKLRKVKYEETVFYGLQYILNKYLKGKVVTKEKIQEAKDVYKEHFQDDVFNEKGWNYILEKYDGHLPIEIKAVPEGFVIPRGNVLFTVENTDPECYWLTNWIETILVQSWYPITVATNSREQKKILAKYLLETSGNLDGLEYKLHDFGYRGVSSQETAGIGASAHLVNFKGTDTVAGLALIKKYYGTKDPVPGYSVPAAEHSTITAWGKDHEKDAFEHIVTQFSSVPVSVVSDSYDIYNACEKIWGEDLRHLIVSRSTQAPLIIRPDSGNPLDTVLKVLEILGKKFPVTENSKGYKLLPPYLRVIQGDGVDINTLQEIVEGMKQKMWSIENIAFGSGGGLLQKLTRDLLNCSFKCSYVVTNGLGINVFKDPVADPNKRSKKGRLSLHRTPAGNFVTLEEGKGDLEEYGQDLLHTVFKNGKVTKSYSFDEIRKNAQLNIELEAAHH
assay-comment: Time-Resolved Fluorescence Resonance Energy Transfer (TR-FRET) Binding Assay of NAMPT
test-context: 6.8 nM NAMPT, 200 nM probe, equilibrated 3 hours, absence of substrates
Please go through the items and note down their IC50.
Please respond with the number in nM and leave the unit unwritten.

Read off the recorded IC50 for "O=C(Nc1ccc(C2CCN(C(=O)Cc3ccc(Cl)c(Cl)c3)CC2)cc1)C1CN(c2cccnn2)C1"
23.9

Read off the recorded IC50 for "O=C(Nc1ccc(OC2CCN(C(=O)c3ccco3)CC2)cc1)C1CN(c2cccnc2)C1"
52.7

Read off the recorded IC50 for "CCCCCC(=O)N1CCC(c2ccc(NC(=O)C3CN(c4cccnn4)C3)cc2)CC1"
38.7

Read off the recorded IC50 for "CC(=O)N1CCC(c2ccc(NC(=O)C3CN(c4cccnn4)C3)cc2)CC1"
104
